target_desc: Human immunodeficiency virus type 1 reverse transcriptase (Human immunodeficiency virus 1, UniProt Q72547)
experiment_description: Tested for its ability to inhibit HIV-1 reverse transcriptase strand transfer using wild type HIV-1-RT enzyme
measure: IC50

Request: Given the compound O=C(OC1COc2cc(O)cc(O)c2C1)c1ccc(O)c(O)c1 (stereo unspecified) , what is its reported IC50?
Response: > 100 µM

Request: Given the compound O=C(OC1COc2cc(O)cc(O)c2C1)c1cc(O)c(O)c(O)c1 (stereo unspecified) , what is its reported IC50?
Response: 6.2 µM

Request: Given the compound O=C(OC1COc2cccc(O)c2C1)c1cc(O)c(O)c(O)c1 (stereo unspecified) , what is its reported IC50?
Response: 8.7 µM

Request: Given the compound O=C(OC1COc2cc(O)ccc2C1)c1cc(O)c(O)c(O)c1 (stereo unspecified) , what is its reported IC50?
Response: 7.6 µM

Request: Given the compound `O=C(OCCc1ccccc1)c1cc(O)c(O)c(O)c1` , what is its reported IC50?
Response: 6.9 µM

Request: Given the compound O=C(OC1COc2ccccc2C1)c1cc(O)c(O)c(O)c1 (stereo unspecified) , what is its reported IC50?
Response: 6.1 µM

* * *

target_desc: Human immunodeficiency virus type 1 reverse transcriptase (Human immunodeficiency virus 1, UniProt Q72547)
experiment_description: Tested for its ability to inhibit HIV-1 reverse transcriptase strand transfer using A17 double mutant HIV-1-RT enzyme
measure: IC50 (µM)
Give the value, in units of µM, as a plain number.

Request: Given the compound O=C(OC1COc2ccccc2C1)c1cc(O)c(O)c(O)c1 (stereo unspecified) , what is its reported IC50?
Response: 2.6

Request: Given the compound COc1cc(OC)c2c(c1)OCC(OC(=O)c1cc(O)c(O)c(O)c1)C2 (stereo unspecified) , what is its reported IC50?
Response: 6.9

Request: Given the compound O=C(OC1COc2cc(O)cc(O)c2C1)c1cc(O)c(O)c(O)c1 (stereo unspecified) , what is its reported IC50?
Response: 5.5

Request: Given the compound `O=C(OCCc1ccc(O)c(O)c1)c1cc(O)c(O)c(O)c1` , what is its reported IC50?
Response: 10.5

* * *

target_desc: Human immunodeficiency virus type 1 reverse transcriptase (Human immunodeficiency virus 1, UniProt Q72547)
experiment_description: Tested for its ability to inhibit HIV-1 reverse transcriptase polymerization using A17 double mutant HIV-1-RT enzyme
measure: IC50 (µM)
Give the value, in units of µM, as a plain number.

Request: Given the compound `O=C(OCCc1ccc(O)c(O)c1)c1cc(O)c(O)c(O)c1` , what is its reported IC50?
Response: 6.3

Request: Given the compound O=C(OC1COc2cc(O)ccc2C1)c1cc(O)c(O)c(O)c1 (configuration not stated) , what is its reported IC50?
Response: 30.8

Request: Given the compound O=C(OC1COc2cccc(O)c2C1)c1cc(O)c(O)c(O)c1 (configuration not stated) , what is its reported IC50?
Response: 64.7

* * *

target_desc: Human immunodeficiency virus type 1 reverse transcriptase (Human immunodeficiency virus 1, UniProt Q72547)
experiment_description: Tested for its ability to inhibit HIV-1 reverse transcriptase strand transfer using wild type HIV-1-RT enzyme
Exercise: state measured pIC50 for each of the compounds provided.
Scale note: pIC50 = -log10(concentration in M).

Request: Given the compound COc1cc(OC)c2c(c1)OCC(OC(=O)c1cc(O)c(O)c(O)c1)C2 (centres undefined) , what is its reported pIC50?
Response: 6.05

Request: Given the compound `O=C(OCCc1ccc(O)cc1)c1cc(O)c(O)c(O)c1` , what is its reported pIC50?
Response: 5.35

Request: Given the compound `O=C(OCCc1ccc(O)c(O)c1)c1cc(O)c(O)c(O)c1` , what is its reported pIC50?
Response: 6.22
